// provenance: patent US20080194585A1

# Test K disease control rating values compiled below
tested on: Puccinia recondita f. sp. tritici; assay: Test K: wheat leaf rust, preventive spray on wheat seedlings; conditions: 40 ppm (marked *); 100 = 100% disease control, 0 = no control
Marks after values point to notes of the source that are not given here.

COMPOUND: Cc1nc(-c2ccccn2)c(=O)n(-c2ccccc2)c1-c1c(F)cccc1F
Test K disease control rating: 0* %

COMPOUND: CCCCn1c(-c2ccc(F)cc2Cl)c(Cl)nc(-n2ccc(C)n2)c1=O
Test K disease control rating: 94* %

COMPOUND: CSCC(C)n1c(-c2c(F)cccc2F)c(Cl)nc(-n2ccc(C)n2)c1=O (stereo not drawn)
Test K disease control rating: 0* %

COMPOUND: O=c1c(-n2cncn2)nc(Cl)c(-c2c(F)cccc2F)n1Cc1cccc(Cl)c1
Test K disease control rating: 94* %

COMPOUND: O=c1c(-n2cccn2)nc(Cl)c(-c2c(F)cc(F)cc2F)n1-c1cccc(C(F)(F)F)c1
Test K disease control rating: 91* %

COMPOUND: O=c1c(-n2cccn2)nc(Cl)c(-c2c(F)cccc2F)n1Cc1ccccc1F [compound 330]
Test K disease control rating: 100* %

COMPOUND: O=c1c(-n2cccn2)nc(Cl)c(-c2c(F)cccc2F)n1-c1cccc(F)c1F
Test K disease control rating: 100* %

COMPOUND: O=c1c(-n2cccn2)nc(Cl)c(-c2c(F)cccc2F)n1C1CC1c1ccccc1 (stereo not drawn)
Test K disease control rating: 0* %

COMPOUND: O=c1c(-n2cccn2)nc(Cl)c(-c2c(F)cc(F)cc2F)n1-c1cccc(F)c1F
Test K disease control rating: 100* %

COMPOUND: Cc1ccc(-n2c(-c3c(F)cccc3F)c(Cl)nc(-n3ccc(C)n3)c2=O)c(C)c1
Test K disease control rating: 91* %

COMPOUND: COc1cccc(-n2c(-c3c(F)cccc3F)c(Cl)nc(-n3cccn3)c2=O)c1
Test K disease control rating: 100* %

COMPOUND: Cc1ccn(-c2nc(Cl)c(-c3ccc(F)cc3Cl)n(-c3ccccc3)c2=O)n1
Test K disease control rating: 96* %

COMPOUND: O=c1c(-n2cccn2)nc(Cl)c(-c2c(F)cc(F)cc2F)n1-c1ccccc1F
Test K disease control rating: 99* %

COMPOUND: CC[C@H](C)Cn1c(-c2ccc(F)cc2Cl)c(Cl)nc(N2CCC=N2)c1=O
Test K disease control rating: 91* %

COMPOUND: O=c1c(-n2cccn2)nc(Cl)c(-c2c(F)cccc2F)n1CCO
Test K disease control rating: 82* %

COMPOUND: Cc1cc(C)c(-c2c(Cl)nc(-n3ccc(C)n3)c(=O)n2CC(C)C)c(C)c1
Test K disease control rating: 41* %

COMPOUND: O=c1c(-n2cccn2)nc(Cl)c(-c2c(F)cccc2F)n1C1CC1
Test K disease control rating: 83* %

COMPOUND: CC[C@H](C)Cn1c(-c2ccc(F)cc2Cl)c(Br)nc(N2CCC=N2)c1=O
Test K disease control rating: 96* %

COMPOUND: Cc1cccc(-n2c(-c3c(F)cccc3F)c(Cl)nc(-n3cccn3)c2=O)c1
Test K disease control rating: 97* %

COMPOUND: Cc1ccn(-c2nc(Cl)c(-c3c(F)cccc3F)n(-c3cc(F)cc(F)c3)c2=O)n1
Test K disease control rating: 100* %

COMPOUND: Cc1ccc(-n2c(-c3c(F)cccc3F)c(Cl)nc(-n3ccc(C)n3)c2=O)cc1
Test K disease control rating: 95* %

COMPOUND: CCCCn1c(-c2ccc(F)cc2Cl)c(Cl)nc(-n2cccn2)c1=O
Test K disease control rating: 99* %

COMPOUND: O=c1c(-n2cccn2)nc(Cl)c(-c2c(F)cccc2F)n1-c1ccc(F)cc1
Test K disease control rating: 100* %

COMPOUND: Cc1ccn(-c2nc(Cl)c(-c3c(F)cccc3F)n(-c3ccccc3C)c2=O)n1
Test K disease control rating: 96* %

COMPOUND: Cc1ccn(-c2nc(Cl)c(-c3c(F)cc(F)cc3F)n(-c3ccc(F)c(F)c3)c2=O)n1
Test K disease control rating: 100* %

COMPOUND: O=c1c(-n2cccn2)nc(Cl)c(-c2c(F)cc(F)cc2F)n1-c1ccc(F)c(F)c1
Test K disease control rating: 100* %

COMPOUND: O=c1c(-n2cccn2)nc(Cl)c(-c2c(F)cc(F)cc2F)n1Cc1cccc(Br)c1
Test K disease control rating: 99* %

COMPOUND: Cc1ccn(-c2nc(Cl)c(-c3c(F)ccc(F)c3F)n(-c3ccccc3)c2=O)n1
Test K disease control rating: 100* %

COMPOUND: CSCCn1c(-c2c(F)cccc2F)c(Cl)nc(-n2ccc(C)n2)c1=O
Test K disease control rating: 74* %

COMPOUND: O=c1c(-n2cccn2)nc(Cl)c(-c2c(F)cc(F)cc2F)n1-c1ccccc1Cl
Test K disease control rating: 100* %

COMPOUND: O=c1c(-n2cccn2)nc(Cl)c(-c2c(F)cccc2F)n1-c1cc(F)cc(F)c1
Test K disease control rating: 100* %

COMPOUND: O=c1c(-n2cccn2)nc(Cl)c(-c2c(F)cc(F)cc2F)n1-c1ccc(Cl)cc1
Test K disease control rating: 100* %

COMPOUND: O=c1c(-n2cccn2)nc(Cl)c(-c2c(F)cc(F)cc2F)n1Cc1ccc(C(F)(F)F)cc1
Test K disease control rating: 74* %
